# Test system: ATP;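 further: ATP exposure 15 min at 22 °C before imaging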
# Test name: switch fluorescence ratio, 500 uM ATP over buffer (Cy3 cluster intensity, sum of 5 cycles each) (fold (ratio)); higher = stronger signal-on switching upon ATP binding; sequences stand for … in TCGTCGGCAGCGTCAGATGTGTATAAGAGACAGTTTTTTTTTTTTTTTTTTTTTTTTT…TC
# Condition details: aptamer strand: ATP DNA aptamer (quencher-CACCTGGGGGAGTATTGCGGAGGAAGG + anchor), 100 nM annealed; ATP concentration: 500 uM
Property: switch fluorescence ratio

{"columns": ["Sequence input", "switch fluorescence ratio"],
 "data": [
  ["TCTGGGTGAA", 1.03],
  ["ATGTATAAAT", 0.974],
  ["CGGTTGTGGG", 0.996],
  ["TTTTAGATCT", 1.02],
  ["ACAACCAGGA", 1.74]
]}

Answer for every listed entry: what is its switch fluorescence ratio? The entries follow.
1. CGAGGCTAGG
2. ATGAGGAGGA
3. CTTTAAGGGG
4. TATGTTTCAG
5. TTTTTAGAGG

Response:
1: 1.07; 2: 1.04; 3: 1.01; 4: 0.972; 5: 0.97
